Data provenance is PubChem BioAssay (NCI).

- Test system: BT-549 breast
- PROCEDURE_TEXT: NCI-60 one-dose screen, 48 h (100 = growth as untreated, 0 = no growth, -100 = all killed)
- STUDY_CONDITIONS: 10 µM unless noted
- Description: Growth inhibition of the BT-549 human tumor cell line is measured as a screen for anti-cancer activity. Cells are grown in 96 well plates and exposed to the test compound for 48 hours. Compounds are tested at a single concentration, which is 10^-5 M for most compounds. The reported endpoint is percent growth (GI% or GIPRCNT), where numbers from 0 - 100% represent growth inhibition, and numbers from -100% - 0 represent cell death. For example, a value of 40 represents 60% growth inhibition. […]
The panel holds about 83,000 compounds, 20% with a hit somewhere; the sample as a whole holds those more often. Calls of active or inactive are those of the source. The calls were made as follows: active = growth percent below 10; inactive = the rest.
READOUT: growth

molecule=CCCC(=O)Oc1ccc(/C(=C(/CC)Cc2ccccc2)c2ccc(OCCN3CCCC3)cc2)cc1 readout=growth result="85.3% (inactive)"
molecule=COc1cc(OC)c(/C=C/c2cc[n+](C)c3ccccc23)c(OC)c1 readout=growth result="24% (inactive)"
molecule=COc1ccc(-n2cc(-c3ccccc3)c3c(SCC(=O)N/N=C/c4ccc([N+](=O)[O-])cc4)ncnc32)cc1 readout=growth result="97.8% (inactive)"

I'd like to know its growth. The molecule in question is "CCOC(=O)c1c2c(n3ccc(NC(=O)CCN4CCCCC4)cc13)C(=O)c1ncccc1C2=O"
58.5% (inactive)

Recorded growth of "c1ccc(-c2nc(N3CCOCC3)c3c4c(sc3n2)CCCCC4)nc1" , please.
62.8% (inactive)

For the molecule shown here, "O=C1/C(=C/c2ccccc2)CN(CCC(=O)N2C/C(=C\c3ccccc3)C(=O)/C(=C/c3ccccc3)C2)C/C1=C\c1ccccc1" , give the reported growth.
56.3% (inactive)

Can you share its growth? I mean this molecule: "CN(C)c1ccc(/C=C\C2=[N+](C)c3ccccc3C2(C)C)cc1"
-4.12% (active)

What growth value was documented for this molecule, "COC(=S)SCN(CSC(=S)OC)c1ccc(Cl)cc1" ?
65.8% (inactive)

Param item = "CCOC(=O)c1nc(Nc2cc(C)[nH]n2)c2ccccc2n1" ; retrieve measured growth.
96.8% (inactive)

Any idea what growth was measured for "COc1cnc2c(c1)C(=O)c1c-2n(CCCBr)c(=O)c2cc([N+](=O)[O-])ccc12" ?
25.5% (inactive)

Which growth value is on record for "COc1ccc2nc3cc(Cl)ccc3c(N3CCN(c4ccnc(N5CCN(C)CC5)n4)CC3)c2c1" ?
55.5% (inactive)

Reported growth for "COc1ccc(-c2c(C)noc2-c2ccc(O)cc2O)cc1" : what is it?
112% (inactive)

What value of growth has been reported for the following molecule? "COc1cc(-c2nc3ccccc3s2)ccc1NC(=O)COc1ccc(Cl)cc1"
87.6% (inactive)

For the molecule CSc1ncnc2c1ncn2C1CCCO1 (stereo not drawn) , what growth is on record?
102% (inactive)

Entry under review: "CN(C)C(=O)c1cc2cnc(Nc3ccc(-c4csc5c(=O)cc(N6CCNCC6)oc45)cc3)nc2n1C1CCCC1" . Reported growth?
46.2% (inactive)

What value of growth has been recorded for this entry: "CC[C@]12C=CCN3CC[C@@]4(c5ccc(OC)cc5N(C)[C@H]4[C@@](O)(C(=O)OC)[C@@H]1OC(=O)CCC(=O)N[C@@H](Cc1c[nH]c4ccccc14)C(=O)OC)[C@@H]32"
115% (inactive)

Fill in the blank: the reported growth of CCN(CC)CCCC(C)N/C(=C1\C(=O)NC(=O)\C1=C(/NC(C)CCCN(CC)CC)c1cccc(OC)c1)c1cccc(OC)c1 (stereo not drawn) is ____.
2.98% (active)

Fill in the blank: the reported growth of "CC(C)C1=C[C@@]23CC[C@@H]4[C@](C)(CCC[C@@]4(C)C(=O)OCC#CCN4CCCC4)[C@H]2C[C@@H]1[C@H]1C(=O)OC(=O)[C@H]13" is ____.
87.7% (inactive)
